system: Plasmodium falciparum; assay: Inhibition of Plasmodium falciparum PFT at 50 nM
Definition: the class of an entry is the range in bin 0 = under 9%, bin 1 = from 9% up to 80%, bin 2 = 80% and over that contains its inhibition.

• Cc1ccccc1CN([C@@H]1CC[C@@H](N(Cc2cncn2C)c2ccc(C#N)cc2)C1)S(=O)(=O)c1cn(C)cn1 (racemic) = bin 1
• Cn1cnc(S(=O)(=O)N(CC2CCN(C(=O)OC(C)(C)C)CC2)[C@@H]2CCC[C@@H]2N(Cc2cncn2C)c2ccc(C#N)cc2)c1 (racemic) = bin 0
• Cn1cnc(S(=O)(=O)N(CC2CCN(C(=O)OC(C)(C)C)CC2)[C@@H]2CC[C@@H](N(Cc3cncn3C)c3ccc(C#N)cc3)C2)c1 (racemic) = bin 2
• Cn1cnc(S(=O)(=O)N(Cc2ccccc2)CC(C)(C)N(Cc2cncn2C)c2ccc(C#N)cc2)c1 = bin 2
• Cn1cnc(S(=O)(=O)N(CC2CCN(c3ncccn3)CC2)[C@H]2CCC[C@@H]2N(Cc2cncn2C)c2ccc(C#N)cc2)c1 (racemic) = bin 1
• Cn1cnc(S(=O)(=O)N(CC2CCN(C(=O)OC(C)(C)C)CC2)[C@H]2CC[C@@H](N(Cc3cncn3C)c3ccc(C#N)cc3)CC2)c1 = bin 0
• Cn1cnc(S(=O)(=O)N(Cc2ccccc2)[C@@H]2CCC[C@@H]2N(Cc2cncn2C)c2ccc(C#N)cc2)c1 (racemic) = bin 0
• Cc1ccccc1CN(CC(C)(C)N(Cc1cncn1C)c1ccc(C#N)cc1)S(=O)(=O)c1cn(C)cn1 = bin 2
• Cn1cnc(S(=O)(=O)N(CC2CCN(C(=O)OC(C)(C)C)CC2)[C@H]2CC[C@@H](N(Cc3cncn3C)c3ccc(C#N)cc3)C2)c1 (racemic) = bin 2
• Cn1cnc(S(=O)(=O)N(Cc2ccsc2)[C@H]2CC[C@@H](N(Cc3cncn3C)c3ccc(C#N)cc3)C2)c1 (racemic) = bin 1
• Cn1cnc(S(=O)(=O)N(CC2CCN(C(=O)OC(C)(C)C)CC2)[C@H]2CC[C@H](N(Cc3cncn3C)c3ccc(C#N)cc3)CC2)c1 = bin 0
• Cn1cnc(S(=O)(=O)N(CCCN(Cc2cncn2C)c2ccc(C#N)cc2)CC2CCN(c3ncccn3)CC2)c1 = bin 2
• Cn1cnc(S(=O)(=O)N(CCCN(Cc2cncn2C)c2ccc(C#N)cc2)Cc2ccccc2)c1 = bin 1

* * *

Collected inhibition values appear next to each entry.
system: Plasmodium falciparum; assay: Inhibition of Plasmodium falciparum PFT at 50 nM
value_type: inhibition

- Cn1cnc(S(=O)(=O)N(CCN(Cc2cncn2C)c2ccc(C#N)cc2)CC2CCN(C(=O)OC(C)(C)C)CC2)c1: 96%
- Cc1ccccc1CN([C@H]1CCC[C@@H]1N(Cc1cncn1C)c1ccc(C#N)cc1)S(=O)(=O)c1cn(C)cn1 (racemic): 35%
- Cc1ccccc1CN(CCN(Cc1cncn1C)c1ccc(C#N)cc1)S(=O)(=O)c1cn(C)cn1: 99%
- Cc1ccccc1CN(CCCN(Cc1cncn1C)c1ccc(C#N)cc1)S(=O)(=O)c1cn(C)cn1: 76%
- Cc1ccccc1CN([C@H]1CC[C@@H](N(Cc2cncn2C)c2ccc(C#N)cc2)C1)S(=O)(=O)c1cn(C)cn1 (racemic): 24%
- Cc1ccccc1CN([C@@H]1CCC[C@@H]1N(Cc1cncn1C)c1ccc(C#N)cc1)S(=O)(=O)c1cn(C)cn1 (racemic): 17%

* * *

test system: Plasmodium falciparum; assay: Antimalarial activity in Plasmodium falciparum 3D7 infected erythrocytes as [3H]hypoxanthine uptake; format: functional; details: 3D7, 72 h, read-out: ED50 (the source's name)
value_type: EC50 (nM)

* Cn1cnc(S(=O)(=O)N(Cc2ccccc2)[C@@H]2CC[C@@H](N(Cc3cncn3C)c3ccc(C#N)cc3)C2)c1 (racemic) | 340
* Cc1ccccc1CN([C@H]1CC[C@@H](N(Cc2cncn2C)c2ccc(C#N)cc2)C1)S(=O)(=O)c1cn(C)cn1 (racemic) | 2400
* Cn1cnc(S(=O)(=O)N(CC2CCN(C(=O)OC(C)(C)C)CC2)[C@H]2CC[C@@H](N(Cc3cncn3C)c3ccc(C#N)cc3)C2)c1 (racemic) | 300
* Cn1cnc(S(=O)(=O)N(Cc2ccccc2)[C@H]2CC[C@@H](N(Cc3cncn3C)c3ccc(C#N)cc3)C2)c1 (racemic) | 700
* Cn1cnc(S(=O)(=O)N(Cc2ccsc2)CC(C)(C)N(Cc2cncn2C)c2ccc(C#N)cc2)c1 | 2450
* Cc1ccccc1CN([C@@H]1CC[C@@H](N(Cc2cncn2C)c2ccc(C#N)cc2)C1)S(=O)(=O)c1cn(C)cn1 (racemic) | 2400
* Cn1cnc(S(=O)(=O)N(CC2CCN(c3ncccn3)CC2)[C@@H]2CCC[C@@H]2N(Cc2cncn2C)c2ccc(C#N)cc2)c1 (racemic) | 3000

* * *

test: Selectivity for Plasmodium falciparum PFT over rat PFT
value_type: Selectivity ratio

* Cn1cnc(S(=O)(=O)N(CCN(Cc2cncn2C)c2ccc(C#N)cc2)CC2CCN(C(=O)OC(C)(C)C)CC2)c1 | 117
* Cn1cnc(S(=O)(=O)N(CC2CCN(C(=O)OC(C)(C)C)CC2)CC(C)(C)N(Cc2cncn2C)c2ccc(C#N)cc2)c1 | 136

* * *

test system: Plasmodium falciparum; assay: Inhibition of Plasmodium falciparum PFT at 50 nM
Everything with inhibition lower than 70% is Criterion not met; everything else, including exactly 70%, is Criterion met.

- Cn1cnc(S(=O)(=O)N(Cc2ccsc2)[C@H]2CCC[C@@H]2N(Cc2cncn2C)c2ccc(C#N)cc2)c1 (racemic): Criterion not met
- Cn1cnc(S(=O)(=O)N(Cc2ccccc2)[C@H]2CC[C@H](N(Cc3cncn3C)c3ccc(C#N)cc3)CC2)c1: Criterion met
- Cn1cnc(S(=O)(=O)N(CC2CCN(C(=O)OC(C)(C)C)CC2)CC(C)(C)N(Cc2cncn2C)c2ccc(C#N)cc2)c1: Criterion met
- Cn1cnc(S(=O)(=O)N(CC2CCN(c3ncccn3)CC2)[C@H]2CC[C@@H](N(Cc3cncn3C)c3ccc(C#N)cc3)C2)c1 (racemic): Criterion not met
- Cn1cnc(S(=O)(=O)N(Cc2ccccc2)[C@H]2CCC[C@@H]2N(Cc2cncn2C)c2ccc(C#N)cc2)c1 (racemic): Criterion not met
- Cn1cnc(S(=O)(=O)N(CC2CCN(c3ncccn3)CC2)CC(C)(C)N(Cc2cncn2C)c2ccc(C#N)cc2)c1: Criterion met

* * *

system: Plasmodium falciparum; experiment: Inhibition of Plasmodium falciparum PFT at 50 nM
value_type: inhibition

- Cn1cnc(S(=O)(=O)N(CC2CCN(C(=O)OC(C)(C)C)CC2)[C@H]2CCC[C@@H]2N(Cc2cncn2C)c2ccc(C#N)cc2)c1 (racemic): 82%
- Cn1cnc(S(=O)(=O)N(CC2CCN(c3ncccn3)CC2)[C@@H]2CCC[C@@H]2N(Cc2cncn2C)c2ccc(C#N)cc2)c1 (racemic): 0%
- Cn1cnc(S(=O)(=O)N(Cc2ccsc2)[C@@H]2CC[C@@H](N(Cc3cncn3C)c3ccc(C#N)cc3)C2)c1 (racemic): 56%
- Cn1cnc(S(=O)(=O)N(CCN(Cc2cncn2C)c2ccc(C#N)cc2)Cc2ccsc2)c1: 100%
- Cn1cnc(S(=O)(=O)N(CCN(Cc2cncn2C)c2ccc(C#N)cc2)CC2CCN(c3ncccn3)CC2)c1: 96%
- Cn1cnc(S(=O)(=O)N(CCCN(Cc2cncn2C)c2ccc(C#N)cc2)Cc2ccsc2)c1: 73%
- Cn1cnc(S(=O)(=O)N(Cc2ccccc2)[C@@H]2CC[C@@H](N(Cc3cncn3C)c3ccc(C#N)cc3)C2)c1 (racemic): 93%
- Cn1cnc(S(=O)(=O)N(CCN(Cc2cncn2C)c2ccc(C#N)cc2)Cc2ccccc2)c1: 98%

* * *

test system: Plasmodium falciparum; test: Antimalarial activity in Plasmodium falciparum 3D7 infected erythrocytes as [3H]hypoxanthine uptake; format: functional; settings: 3D7, 72 h, read-out: ED50 (the source's name)
pEC50: −log10 of the molar value.
Collected pEC50 values appear next to each entry.
value_type: pEC50

• Cn1cnc(S(=O)(=O)N(Cc2ccccc2)[C@H]2CCC[C@@H]2N(Cc2cncn2C)c2ccc(C#N)cc2)c1 (racemic) = 5.51
• Cn1cnc(S(=O)(=O)N(CC2CCN(C(=O)OC(C)(C)C)CC2)[C@H]2CCC[C@@H]2N(Cc2cncn2C)c2ccc(C#N)cc2)c1 (racemic) = 5.58
• Cc1ccccc1CN([C@@H]1CCC[C@@H]1N(Cc1cncn1C)c1ccc(C#N)cc1)S(=O)(=O)c1cn(C)cn1 (racemic) = 5.55
• Cn1cnc(S(=O)(=O)N(CC2CCN(c3ncccn3)CC2)[C@H]2CCC[C@@H]2N(Cc2cncn2C)c2ccc(C#N)cc2)c1 (racemic) = 5.59
• Cn1cnc(S(=O)(=O)N(Cc2ccsc2)[C@@H]2CC[C@@H](N(Cc3cncn3C)c3ccc(C#N)cc3)C2)c1 (racemic) = 5.82
• Cn1cnc(S(=O)(=O)N(CC2CCN(c3ncccn3)CC2)[C@H]2CC[C@@H](N(Cc3cncn3C)c3ccc(C#N)cc3)C2)c1 (racemic) = 6.22
• Cn1cnc(S(=O)(=O)N(CC2CCN(c3ncccn3)CC2)[C@@H]2CC[C@@H](N(Cc3cncn3C)c3ccc(C#N)cc3)C2)c1 (racemic) = 5.59
• Cn1cnc(S(=O)(=O)N(CC2CCN(C(=O)OC(C)(C)C)CC2)[C@@H]2CC[C@@H](N(Cc3cncn3C)c3ccc(C#N)cc3)C2)c1 (racemic) = 6.51
• Cn1cnc(S(=O)(=O)N(Cc2ccsc2)[C@H]2CC[C@@H](N(Cc3cncn3C)c3ccc(C#N)cc3)C2)c1 (racemic) = 5.62
• Cc1ccccc1CN([C@H]1CCC[C@@H]1N(Cc1cncn1C)c1ccc(C#N)cc1)S(=O)(=O)c1cn(C)cn1 (racemic) = 5.52
• Cn1cnc(S(=O)(=O)N(CCN(Cc2cncn2C)c2ccc(C#N)cc2)Cc2ccsc2)c1 = 6.82
• Cn1cnc(S(=O)(=O)N(Cc2ccsc2)[C@H]2CCC[C@@H]2N(Cc2cncn2C)c2ccc(C#N)cc2)c1 (racemic) = 5.57

meta.source: ChEMBL document CHEMBL1157352
